molecular target: human adrenergic-α2A receptor (Homo sapiens, UniProt P08913); construct: expressed in transfected cells; host or cells: CHO cells, stably transfected; membrane preparation; test: Radioligand binding experiment for hα2A-adrenergic receptor ([3H]raulwolscine); settings: [3H]raulwolscine 1 nM, 60 minutes at 25° C.; read-out: h-α2A pIC50 (converted)
Sequence (P08913 whole entry): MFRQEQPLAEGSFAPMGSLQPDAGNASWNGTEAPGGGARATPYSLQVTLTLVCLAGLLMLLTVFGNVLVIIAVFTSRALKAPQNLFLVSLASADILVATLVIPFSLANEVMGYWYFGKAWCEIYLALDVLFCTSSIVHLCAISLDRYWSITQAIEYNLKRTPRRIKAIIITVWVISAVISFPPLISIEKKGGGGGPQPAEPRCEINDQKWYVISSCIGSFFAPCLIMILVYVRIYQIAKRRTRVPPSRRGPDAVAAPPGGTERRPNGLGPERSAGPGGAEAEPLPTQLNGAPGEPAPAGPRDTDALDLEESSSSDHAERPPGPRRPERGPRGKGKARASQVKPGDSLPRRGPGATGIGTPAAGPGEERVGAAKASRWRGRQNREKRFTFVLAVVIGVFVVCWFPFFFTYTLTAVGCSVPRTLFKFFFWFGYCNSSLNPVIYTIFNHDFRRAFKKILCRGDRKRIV
reported.endpoint: IC50 (µM)

Examples from the recorded data:
[[record]]
compound = "O=C(Cn1ccnc(NC2CCN(Cc3ccc4ccccc4c3)CC2)c1=O)NCc1ccco1"
test_result = 0.158

[[record]]
compound = "COC(=O)c1ccc(-c2c(Cl)nc(NC3CCN(Cc4ccc5ccccc5c4)CC3)c(=O)n2Cc2ccc(OC)cc2)cc1"
test_result = 1.26


a = C#CCN(C)C(=O)Cn1ccnc(NC2CCN(Cc3ccc4ccccc4c3)CC2)c1=O
b = CCCNC(=O)NCc1ccc(-n2ccnc(NC3CCN(Cc4ccc5ccccc5c4)CC3)c2=O)cc1
Of the two listed items, a and b , which carries the larger IC50 figure? Indicate which entry you chose by stating its label.
b

P = CC(=O)NCCNCc1ccc(-n2ccnc(NC3CCN(Cc4ccc5ccccc5c4)CC3)c2=O)cc1
Q = CN(CCCn1ccnc(NC2CCN(Cc3ccc4ccccc4c3)CC2)c1=O)C(=O)OC(C)(C)C
R = O=c1[nH]ncn1CCCn1ccnc(NC2CCN(Cc3ccc4ccccc4c3)CC2)c1=O
S = COC(=O)c1ccc(-n2ccnc(NC3CCN(Cc4ccc5ccccc5c4)CC3)c2=O)cc1
Put the entries in order of IC50, starting with the largest number. Answer by listing the labels in the order asked for.
R, Q, P, S

A = CC(C)(C)C(=O)Cn1ccnc(NC2CCN(Cc3ccc4ccccc4c3)CC2)c1=O
B = O=c1c(NC2CCN(Cc3ccc4ccccc4c3)CC2)nccn1CCCNCc1ccccc1
Of A and B , which shows the smaller IC50 value? Indicate which entry you chose by stating its label.
A
(A: 0.2 µM, B: 0.631 µM)

a = Cc1cc(CNCc2ccc(-n3ccnc(NC4CCN(Cc5ccc6ccccc6c5)CC4)c3=O)cc2F)no1
b = O=c1[nH]c(-c2cccc(CNCC3CCCO3)c2)c(Cl)nc1NC1CCN(Cc2ccc3ccccc3c2)CC1 (stereo not drawn)
c = O=C(Nc1cccc(-n2ccnc(NC3CCN(Cc4ccc5ccccc5c4)CC3)c2=O)c1)c1ccc(F)cc1
d = O=c1c(NC2CCN(Cc3ccc4ccccc4c3)CC2)nccn1-c1ccc2c(c1)OCCO2
Put the items in order so that reported IC50 rises from first to last. Answer by listing the labels in the order asked for.
d, c, a, b

* * *

Target: 5HT-transporter (Homo sapiens, UniProt P31645)
Construct: Human platelet membranes (Oceanix Biosciences Corporation, Hanover, Md., USA) were thawed; tissue Oceanix Biosciences Corporation, Hanover, Md., USA; host or cells: human platelet membranes
Sequence (P31645 whole entry): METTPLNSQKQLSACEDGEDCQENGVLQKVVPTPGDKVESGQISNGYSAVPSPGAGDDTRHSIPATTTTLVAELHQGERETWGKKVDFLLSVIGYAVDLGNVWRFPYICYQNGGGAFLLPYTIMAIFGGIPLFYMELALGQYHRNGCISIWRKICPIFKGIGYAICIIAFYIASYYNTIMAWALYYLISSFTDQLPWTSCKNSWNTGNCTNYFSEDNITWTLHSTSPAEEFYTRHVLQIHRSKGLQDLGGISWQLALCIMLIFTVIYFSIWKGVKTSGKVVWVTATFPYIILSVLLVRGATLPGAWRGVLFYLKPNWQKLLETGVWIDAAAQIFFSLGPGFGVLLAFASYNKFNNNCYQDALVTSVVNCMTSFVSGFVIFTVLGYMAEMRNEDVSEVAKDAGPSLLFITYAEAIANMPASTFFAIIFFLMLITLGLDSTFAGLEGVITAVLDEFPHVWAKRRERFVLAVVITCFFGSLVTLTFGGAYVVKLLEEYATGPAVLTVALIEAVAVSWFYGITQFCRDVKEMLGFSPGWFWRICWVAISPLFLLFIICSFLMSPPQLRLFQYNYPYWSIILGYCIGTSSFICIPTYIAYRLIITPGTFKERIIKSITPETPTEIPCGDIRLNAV
Assay: Binding experiment for the 5HT-transporter ([3H]paroxetine, human platelet membranes)
Details: [3H]paroxetine 0.5 nM, 60 min at 25° C., read-out: h-5HTT pIC50 (converted)
Protocol: The interaction of the compounds of Formula (I) with α2C-adrenoceptor receptors was assessed in in vitro radioligand binding experiments. […] When equilibrium of binding is reached, the receptor bound radioactivity is separated from the non-bound radioactivity, and the receptor- or transporter-bound activity is counted. The interaction of the test compounds with the receptor is assessed in competition binding experiments. […]
reported.endpoint: IC50 (nM)

Examples from the recorded data:
[[record]]
compound = "NCc1ccc(Cn2ccnc(NC3CCN(Cc4ccc5ccccc5c4)CC3)c2=O)cc1"
target_entity = "5HT-transporter (Homo sapiens, UniProt P31645)"
reported_endpoint = "IC50"
unit_descriptor = "nM"
test_result = 63.1

[[record]]
compound = "CC(=O)N1CCc2ccc(-n3ccnc(NC4CCN(Cc5ccc6ccccc6c5)CC4)c3=O)cc2C1"
target_entity = "5HT-transporter (Homo sapiens, UniProt P31645)"
reported_endpoint = "IC50"
unit_descriptor = "nM"
test_result = 25.1

[[record]]
compound = "COCCC(=O)NCc1ccc(-n2ccnc(NC3CCN(Cc4ccc5ccccc5c4)CC3)c2=O)cc1"
target_entity = "5HT-transporter (Homo sapiens, UniProt P31645)"
reported_endpoint = "IC50"
unit_descriptor = "nM"
test_result = 15.8


I = O=c1c(NC2CCN(Cc3ccc4ccccc4c3)CC2)nccn1-c1ccc2cc[nH]c2c1
II = CCCNC(=O)Cc1ccc(-n2ccnc(NC3CCN(Cc4ccc5ccccc5c4)CC3)c2=O)cc1
III = O=c1c(NC2CCN(Cc3ccc4ccccc4c3)CC2)nccn1-c1ccc(NCCN2CCOCC2)cc1
IV = O=c1c(NC2CCN(Cc3ccc4ccccc4c3)CC2)nccn1-c1ccc(CNCC2CCCO2)c(F)c1 (centres unmarked)
Put the entries in order of IC50, starting with the largest number. Answer by listing the labels in the order asked for.
I, II, III, IV
(I: 50.1 nM, II: 20 nM, III: 12.6 nM, IV: 3.16 nM)

* * *

reported.endpoint: melting point (°C)

A = O=C1c2ccccc2C(=O)N1CCCn1ccnc(NC2CCN(Cc3ccc4ccccc4c3)CC2)c1=O
B = CCCNC(=O)c1ccc(-n2ccnc(NC3CCN(Cc4ccc5ccccc5c4)CC3)c2=O)cc1
Of the two listed items, A and B , which carries the larger melting point figure? Indicate which entry you chose by stating its label.
B
(B: 210.1 °C, A: 76.5 °C)

* * *

Target: human adrenergic-α2A receptor (Homo sapiens)
Construct: expressed in transfected cells; host or cells: CHO cells, stably transfected; membrane preparation
Test: Radioligand binding experiment for hα2A-adrenergic receptor ([3H]raulwolscine)
Conditions: [3H]raulwolscine 1 nM, 60 minutes at 25° C.; read-out: h-α2A pIC50 (converted)
Protocol: The interaction of the compounds of Formula (I) with α2C-adrenoceptor receptors was assessed in in vitro radioligand binding experiments. […] When equilibrium of binding is reached, the receptor bound radioactivity is separated from the non-bound radioactivity, and the receptor- or transporter-bound activity is counted. The interaction of the test compounds with the receptor is assessed in competition binding experiments. […]
reported.endpoint: IC50 (nM)

Examples from the recorded data:
[[record]]
compound = "O=C(Cn1ccnc(NC2CCN(Cc3ccc4ccccc4c3)CC2)c1=O)Nc1ccccc1 [1-64]"
reported_endpoint = "IC50"
test_result = 158

[[record]]
compound = "O=c1c(NC2CCN(Cc3ccc4ccccc4c3)CC2)nccn1-c1ccc(CN2CCC(O)CC2)cc1 [2-14]"
reported_endpoint = "IC50"
test_result = 158

[[record]]
compound = "O=C1CN(Cc2ccc(-n3ccnc(NC4CCN(Cc5ccc6ccccc6c5)CC4)c3=O)cc2)CCN1 [2-04]"
reported_endpoint = "IC50"
test_result = 126

[[record]]
compound = "Cc1ccc(N2CCN(C(=O)Cn3ccnc(NC4CCN(Cc5ccc6ccccc6c5)CC4)c3=O)CC2)cc1C [2-07]"
reported_endpoint = "IC50"
test_result = 398


I = O=C1c2ccccc2C(=O)N1CC#CCn1ccnc(NC2CCN(Cc3ccc4ccccc4c3)CC2)c1=O [2-20]
II = O=C(Cn1ccnc(NC2CCN(Cc3ccc4ccccc4c3)CC2)c1=O)Nc1ccc(F)cc1 [1-65]
III = CC(CC(=O)NCc1ccc(-n2ccnc(NC3CCN(Cc4ccc5ccccc5c4)CC3)c2=O)cc1)CC(C)(C)C (centres unmarked) [1-27]
IV = O=C(NCc1ccc(-n2ccnc(NC3CCN(Cc4ccc5ccccc5c4)CC3)c2=O)cc1)NCc1cc(F)cc(C(F)(F)F)c1 [1-50]
Put the items in order so that reported IC50 rises from first to last. Answer by listing the labels in the order asked for.
II, I, III, IV

* * *

target: human adrenergic-α2C receptor (Homo sapiens); construct: expressed in transfected cells; host or cells: CHO cells, stably transfected; membrane preparation; test: Radioligand binding experiment for hα2C-adrenoceptor ([3H]raulwolscine); conditions: [3H]raulwolscine 1 nM, 60 minutes at 25° C.; read-out: h-α2C pIC50 (converted)
Sequence (P18825 whole entry): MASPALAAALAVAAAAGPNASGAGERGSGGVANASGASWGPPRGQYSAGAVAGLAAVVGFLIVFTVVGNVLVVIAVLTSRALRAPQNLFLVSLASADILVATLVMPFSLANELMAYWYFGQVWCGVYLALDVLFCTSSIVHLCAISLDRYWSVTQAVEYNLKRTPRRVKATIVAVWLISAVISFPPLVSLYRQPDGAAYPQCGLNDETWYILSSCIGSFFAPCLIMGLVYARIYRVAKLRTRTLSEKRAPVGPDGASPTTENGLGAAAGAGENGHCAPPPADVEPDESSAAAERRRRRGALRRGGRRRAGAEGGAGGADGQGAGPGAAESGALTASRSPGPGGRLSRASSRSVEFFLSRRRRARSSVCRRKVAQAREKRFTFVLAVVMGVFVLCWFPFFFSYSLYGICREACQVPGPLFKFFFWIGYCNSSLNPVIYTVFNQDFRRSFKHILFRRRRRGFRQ
reported.endpoint: IC50 (µM)

Examples from the recorded data:
[[record]]
compound = "O=C(CCc1ccccc1)NCc1ccc(-n2ccnc(NC3CCN(Cc4ccc5ccccc5c4)CC3)c2=O)cc1 [1-43]"
reported_endpoint = "IC50"
test_result = 0.0398

[[record]]
compound = "CCCC(=O)NCc1ccc(-n2ccnc(NC3CCN(Cc4ccc5ccccc5c4)CC3)c2=O)cc1F [1-26]"
reported_endpoint = "IC50"
test_result = 0.00794

[[record]]
compound = "CCCNCc1ccc(-n2ccnc(NC3CCN(Cc4ccc5ccccc5c4)CC3)c2=O)cc1 [1-06]"
reported_endpoint = "IC50"
test_result = 0.01


A = CN(C(=O)Cn1ccnc(NC2CCN(Cc3ccc4ccccc4c3)CC2)c1=O)C1CCCCC1 [1-16]
B = O=C(CCN(c1nccn(CCC(=O)c2ccccc2)c1=O)C1CCN(Cc2cnc3ccccc3c2)CC1)c1ccccc1 [9-20]
Of A and B , which shows the smaller IC50 value? Indicate which entry you chose by stating its label.
A
(A: 0.0251 µM, B: 0.398 µM)

* * *

Biological target: human adrenergic-α2A receptor (Homo sapiens, UniProt P08913)
Construct: expressed in transfected cells; host or cells: CHO cells, stably transfected; membrane preparation
Experiment: Radioligand binding experiment for hα2A-adrenergic receptor ([3H]raulwolscine)
Conditions: [3H]raulwolscine 1 nM, 60 minutes at 25° C.; read-out: h-α2A pIC50 (converted)
Protocol: The interaction of the compounds of Formula (I) with α2C-adrenoceptor receptors was assessed in in vitro radioligand binding experiments. […] When equilibrium of binding is reached, the receptor bound radioactivity is separated from the non-bound radioactivity, and the receptor- or transporter-bound activity is counted. The interaction of the test compounds with the receptor is assessed in competition binding experiments. […]
reported.endpoint: IC50 (µM)

[[record]]
query_smiles = "O=c1[nH]c(-c2cccc(CNCCF)c2)c(Cl)nc1NC1CCN(Cc2ccc3ccccc3c2)CC1"
target_entity = "human adrenergic-α2A receptor (Homo sapiens, UniProt P08913)"
reported_endpoint = "IC50"
test_result = 0.794


a = CN(C)C(=O)Cn1ccnc(N2CCN(Cc3cccc4ccccc34)CC2)c1=O
b = COC(=O)CCCC(=O)NCc1ccc(-n2ccnc(NC3CCN(Cc4ccc5ccccc5c4)CC3)c2=O)cc1
Of a and b , which shows the smaller IC50 value? Indicate which entry you chose by stating its label.
b
(b: 0.631 µM, a: 5.01 µM)

a = NCc1ccc(Cn2ccnc(NC3CCN(Cc4ccc5ccccc5c4)CC3)c2=O)cc1
b = O=C1c2ccccc2C(=O)N1CCCn1ccnc(NC2CCN(Cc3ccc4ccccc4c3)CC2)c1=O
c = O=C(Cn1ccnc(NC2CCN(Cc3ccc4ccccc4c3)CC2)c1=O)NCc1ccccc1
Put the entries in order of IC50, starting with the largest number. Answer by listing the labels in the order asked for.
c, b, a
(c: 0.2 µM, b: 0.126 µM, a: 0.0501 µM)

I = CN(C)CCNC(=O)NCc1ccc(-n2ccnc(NC3CCN(Cc4ccc5ccccc5c4)CC3)c2=O)cc1
II = CCCn1ccnc(NC2CCN(Cc3ccc4ccccc4c3)CC2)c1=O
Of the two listed items, I and II , which carries the larger IC50 figure? Indicate which entry you chose by stating its label.
II
